Entries and their viability
Assay: reduced viability of SK-BR-3 breast cancer cells – cell-based, 24 h, human, pilot screen (AID 572);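 note: compound exposure lasted between 18 and 24 h rather than exactly 24 h; 100% = carrier-treated control wells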
Details: SK-BR-3 viability, CellTiter-Glo luminescence, at 10 µM, stronger effect = lower value
Your answer should be a plain number; it is taken to be in %.

>>> readout_value("COCCCNC(=O)CC1Oc2ccccc2NC1=O (stereo unspecified)")
86.5
>>> readout_value("CCN1CCN(c2ncnc3c2cnn3-c2ccc(C)cc2C)CC1")
85.5
>>> readout_value("CCOC(=O)c1ccc(NC(=O)CC2SC(=NC)N(C)C2=O)cc1 (stereo unspecified)")
107
>>> readout_value("COc1ccc(OC)c(NC(=O)c2cn(C)c(=O)c3cc(OC)c(OC)cc23)c1")
104
>>> readout_value("CC1CCC(NC(=O)Cn2ncc3ccccc32)CC1 (stereo unspecified)")
106
>>> readout_value("C=CCOC(=O)COc1ccc2c(C)c(C)c(=O)oc2c1C")
106
>>> readout_value("CCOc1ccc(N(CC(=O)NC2CCCCC2)S(=O)(=O)c2c(C)noc2C)cc1")
79.5
>>> readout_value("CCOc1ccc(N(CC(=O)NC2CCCC(C)C2C)S(=O)(=O)c2c(C)noc2C)cc1 (stereo unspecified)")
89.5

Query: I'd like to know its viability. The compound in question is CC1CCc2nn(CC(=O)Nc3ccc(F)cc3F)cc2C1 (stereo unspecified)
Response: 108

Query: Similarly, `CC(=O)NCc1nc2ccccc2n1C(C)C` ?
Response: 104

Query: Thanks! And COc1ccc(NC(=O)C2CCCCN2S(=O)(=O)c2ccc(F)cc2)cc1 (stereo unspecified) ?
Response: 91
